protocol.summary: Antioxidant activity assessed as ABTS radical scavenging activity measured after 15 mins by UV-Visible spectrophotometric based assay
Assay type: functional
# note: exactly 20 µM is not below, so it is Not satisfied; use Satisfied for IC50 strictly under it

                                    molecule            cat
 0  Cc1c(C)c2c(c(C)c1O)CCC(C)(C(=O)O)O2 (configuration not stated) [TROLOX]  Not satisfied
 1  CS(=O)(=O)[O-].O=C(Cc1ccc(O)c(O)c1)NCCCCCC[P+](c1ccccc1)(c1ccccc1)c1ccccc1  Not satisfied
 2  CS(=O)(=O)[O-].O=C(/C=C/c1ccc(O)c(O)c1)NCCCCCCCCCC[P+](c1ccccc1)(c1ccccc1)c1ccccc1  Not satisfied
 3  CS(=O)(=O)[O-].O=C(CCc1ccc(O)c(O)c1)NCCCCCCCCCC[P+](c1ccccc1)(c1ccccc1)c1ccccc1  Not satisfied
 4  CS(=O)(=O)[O-].O=C(CCc1ccc(O)c(O)c1)NCCCCCC[P+](c1ccccc1)(c1ccccc1)c1ccccc1  Not satisfied
 5  CS(=O)(=O)[O-].O=C(Cc1cc(O)c(O)c(O)c1)NCCCCCCCCCC[P+](c1ccccc1)(c1ccccc1)c1ccccc1      Satisfied
 6  CS(=O)(=O)[O-].O=C(CCc1cc(O)c(O)c(O)c1)NCCCCCC[P+](c1ccccc1)(c1ccccc1)c1ccccc1      Satisfied
 7                  O=C(O)Cc1cc(O)c(O)c(O)c1      Satisfied
 8     O=C(O)c1cc(O)c(O)c(O)c1 [GALLIC ACID]      Satisfied
 9  O=C(NCCCCCC[P+](c1ccccc1)(c1ccccc1)c1ccccc1)c1cc(O)c(O)c(O)c1.[Br-]      Satisfied
10  CS(=O)(=O)[O-].O=C(/C=C/c1cc(O)c(O)c(O)c1)NCCCCCC[P+](c1ccccc1)(c1ccccc1)c1ccccc1      Satisfied
11  CS(=O)(=O)[O-].O=C(/C=C/c1ccc(O)c(O)c1)NCCCCCC[P+](c1ccccc1)(c1ccccc1)c1ccccc1  Not satisfied
12  CS(=O)(=O)[O-].O=C(Cc1ccc(O)c(O)c1)NCCCCCCCCCC[P+](c1ccccc1)(c1ccccc1)c1ccccc1  Not satisfied
13  CS(=O)(=O)[O-].O=C(/C=C/c1cc(O)c(O)c(O)c1)NCCCCCCCCCC[P+](c1ccccc1)(c1ccccc1)c1ccccc1      Satisfied
14  O=C(O)c1ccc(O)c(O)c1 [PROTOCATECHUIC ACID]  Not satisfied
15  O=C(O)Cc1ccc(O)c(O)c1 [3,4-DIHYDROXYPHENYLACETIC ACID]      Satisfied

---

System: SH-SY5Y
protocol.summary: Induction of ROS generation in human SH-SY5Y cells at 50 uM incubated for 24 hrs by DCFH-DA probe based fluorescence assay relative to control
Type: functional
Calls of active or inactive are those of the source. No cut-off for these calls is given here.
result.type: Activity

                              smiles_string  experimental_system  result_type  result
0  CS(=O)(=O)[O-].O=C(/C=C/c1ccc(O)c(O)c1)NCCCCCCCCCC[P+](c1ccccc1)(c1ccccc1)c1ccccc1              SH-SY5Y     Activity  132.5%
1  CS(=O)(=O)[O-].O=C(CCc1ccc(O)c(O)c1)NCCCCCC[P+](c1ccccc1)(c1ccccc1)c1ccccc1              SH-SY5Y     Activity   83.1%
2  CS(=O)(=O)[O-].O=C(/C=C/c1cc(O)c(O)c(O)c1)NCCCCCCCCCC[P+](c1ccccc1)(c1ccccc1)c1ccccc1              SH-SY5Y     Activity  Active
3  CS(=O)(=O)[O-].O=C(CCc1cc(O)c(O)c(O)c1)NCCCCCC[P+](c1ccccc1)(c1ccccc1)c1ccccc1              SH-SY5Y     Activity  Active
4  CS(=O)(=O)[O-].O=C(CCc1ccc(O)c(O)c1)NCCCCCCCCCC[P+](c1ccccc1)(c1ccccc1)c1ccccc1              SH-SY5Y     Activity   96.2%
5  O=C(NCCCCCCCCCC[P+](c1ccccc1)(c1ccccc1)c1ccccc1)c1ccc(O)c(O)c1.[Br-]              SH-SY5Y     Activity   68.4%
6  CS(=O)(=O)[O-].O=C(Cc1cc(O)c(O)c(O)c1)NCCCCCC[P+](c1ccccc1)(c1ccccc1)c1ccccc1              SH-SY5Y     Activity  Active

---

Tested on: SH-SY5Y
protocol.summary: Induction of ROS generation in human SH-SY5Y cells at 50 uM incubated for 24 hrs by DCFH-DA probe based fluorescence assay relative to control
Type: functional
The source made the active and inactive calls. The calls are words filed in the database; no cut-off is given here.
result.type: Activity

In [3]: df
Out[3]:
                              smiles_string  result_type  result
0  CS(=O)(=O)[O-].O=C(Cc1ccc(O)c(O)c1)NCCCCCC[P+](c1ccccc1)(c1ccccc1)c1ccccc1     Activity   81.3%
1  CS(=O)(=O)[O-].O=C(/C=C/c1cc(O)c(O)c(O)c1)NCCCCCC[P+](c1ccccc1)(c1ccccc1)c1ccccc1     Activity  Active
2  CS(=O)(=O)[O-].O=C(CCc1cc(O)c(O)c(O)c1)NCCCCCCCCCC[P+](c1ccccc1)(c1ccccc1)c1ccccc1     Activity  Active
3  O=C(NCCCCCC[P+](c1ccccc1)(c1ccccc1)c1ccccc1)c1cc(O)c(O)c(O)c1.[Br-]     Activity  Active
4  CS(=O)(=O)[O-].O=C(Cc1cc(O)c(O)c(O)c1)NCCCCCCCCCC[P+](c1ccccc1)(c1ccccc1)c1ccccc1     Activity  Active
5  CS(=O)(=O)[O-].O=C(Cc1ccc(O)c(O)c1)NCCCCCCCCCC[P+](c1ccccc1)(c1ccccc1)c1ccccc1     Activity  103.4%
6  O=C(NCCCCCCCCCC[P+](c1ccccc1)(c1ccccc1)c1ccccc1)c1cc(O)c(O)c(O)c1     Activity  Active

---

protocol.summary: Electrochemical behavior of the compound assessed as redox potential corrected toward saturated Ag/AgCl reference electrode by cyclic voltammetry
result.type: Activity (mV)

>>> print(df.to_string())
                                    compound  number
 0  CS(=O)(=O)[O-].O=C(CCc1ccc(O)c(O)c1)NCCCCCC[P+](c1ccccc1)(c1ccccc1)c1ccccc1     132
 1  CS(=O)(=O)[O-].O=C(Cc1cc(O)c(O)c(O)c1)NCCCCCC[P+](c1ccccc1)(c1ccccc1)c1ccccc1      58
 2  CS(=O)(=O)[O-].O=C(/C=C/c1ccc(O)c(O)c1)NCCCCCCCCCC[P+](c1ccccc1)(c1ccccc1)c1ccccc1     174
 3                  O=C(O)Cc1cc(O)c(O)c(O)c1     135
 4  O=C(NCCCCCCCCCC[P+](c1ccccc1)(c1ccccc1)c1ccccc1)c1cc(O)c(O)c(O)c1     114
 5  O=C(O)Cc1ccc(O)c(O)c1 [3,4-DIHYDROXYPHENYLACETIC ACID]     122
 6  CS(=O)(=O)[O-].O=C(CCc1ccc(O)c(O)c1)NCCCCCCCCCC[P+](c1ccccc1)(c1ccccc1)c1ccccc1     122
 7  O=C(NCCCCCC[P+](c1ccccc1)(c1ccccc1)c1ccccc1)c1ccc(O)c(O)c1     219
 8                      O=C(O)c1ccc(O)c(O)c1     234
 9  Cc1c(C)c2c(c(C)c1O)CCC(C)(C(=O)O)O2 (configuration not stated)     113
10  CS(=O)(=O)[O-].O=C(/C=C/c1cc(O)c(O)c(O)c1)NCCCCCCCCCC[P+](c1ccccc1)(c1ccccc1)c1ccccc1      57
11                 O=C(O)CCc1cc(O)c(O)c(O)c1     120
12  CS(=O)(=O)[O-].O=C(/C=C/c1ccc(O)c(O)c1)NCCCCCC[P+](c1ccccc1)(c1ccccc1)c1ccccc1     164
13              O=C(O)/C=C/c1cc(O)c(O)c(O)c1      56
14  CS(=O)(=O)[O-].O=C(Cc1ccc(O)c(O)c1)NCCCCCCCCCC[P+](c1ccccc1)(c1ccccc1)c1ccccc1     122
15                   O=C(O)c1cc(O)c(O)c(O)c1     120
16  CS(=O)(=O)[O-].O=C(CCc1cc(O)c(O)c(O)c1)NCCCCCC[P+](c1ccccc1)(c1ccccc1)c1ccccc1      11

---

Tested on: SH-SY5Y
protocol.summary: Neuroprotective activity against 6-OHDA-induced toxicity in human SH-SY5Y cells assessed as reduction in cell damage at 10 to 50 uM pretreated for 24 hrs followed by 6-OHDA challenge and measured after 24 hrs by MTT assay relative to control
Assay type: functional
Activity calls are given as the source filed them. The calls are words filed in the database; no cut-off is given here.
result.type: Activity

>>> print(df.to_string())
                              smiles_string        result
0  CS(=O)(=O)[O-].O=C(/C=C/c1ccc(O)c(O)c1)NCCCCCCCCCC[P+](c1ccccc1)(c1ccccc1)c1ccccc1      inactive
1  CS(=O)(=O)[O-].O=C(/C=C/c1cc(O)c(O)c(O)c1)NCCCCCCCCCC[P+](c1ccccc1)(c1ccccc1)c1ccccc1      inactive
2  CS(=O)(=O)[O-].O=C(CCc1cc(O)c(O)c(O)c1)NCCCCCCCCCC[P+](c1ccccc1)(c1ccccc1)c1ccccc1  66.5 - 70.2%
3  CS(=O)(=O)[O-].O=C(Cc1ccc(O)c(O)c1)NCCCCCC[P+](c1ccccc1)(c1ccccc1)c1ccccc1        Active
4  CS(=O)(=O)[O-].O=C(CCc1ccc(O)c(O)c1)NCCCCCC[P+](c1ccccc1)(c1ccccc1)c1ccccc1        Active
5  CS(=O)(=O)[O-].O=C(Cc1cc(O)c(O)c(O)c1)NCCCCCCCCCC[P+](c1ccccc1)(c1ccccc1)c1ccccc1  66.5 - 70.2%
6  O=C(NCCCCCC[P+](c1ccccc1)(c1ccccc1)c1ccccc1)c1ccc(O)c(O)c1      inactive
